Test: Inhibition of recombinant human adrenal 3-beta-hydroxy-delta-5-steroid dehydrogenase
pKi: −log10 of the molar value.
Decide by pKi: equal to or exceeding 6 means Satisfied, less means Not satisfied.

- C[C@]12CCC(=O)C=C1NCC1C2CC[C@@]2(C)C1CC[C@@H]2C(=O)Nc1cc(C(F)(F)F)cc(C(F)(F)F)c1 (stereo not given in full): Satisfied

q: Hello, I need to know if CC(C)(C)c1ccccc1NC(=O)[C@H]1CCC2C3CNC4=CC(=O)CC[C@]4(C)C3CC[C@@]21C (stereo not given in full) has measured pKi not below 6. Thanks!
a: Satisfied

q: Has CC(C)(C)NC(=O)[C@H]1CC[C@H]2[C@@H]3CC[C@H]4NC(=O)C=C[C@]4(C)[C@H]3CC[C@]12C [FINASTERIDE] a recorded pKi greater than or equal to 6?
a: Not satisfied

q: // inclusive: pKi at least 6? input: CC(C)(C)c1ccc(C(F)(F)F)cc1NC(=O)[C@H]1CCC2C3CNC4=CC(=O)CC[C@]4(C)C3CC[C@@]21C (stereo not given in full)
a: Not satisfied

q: Determine whether this compound has pKi no lower than 6: C[C@]12CCC(=O)C=C1NCC1C2CC[C@@]2(C)C1CC[C@@H]2C(=O)NC1(c2ccc(Cl)cc2Cl)CC1 (stereo not given in full)
a: Satisfied

q: Does the reported pKi for C[C@]12CCC(=O)C=C1NCC1C2CC[C@@]2(C)C1CC[C@@H]2C(=O)NC1(c2ccc(Cl)cc2)CCCC1 (stereo not given in full) fall at or above the 6 mark?
a: Not satisfied

###

Target: 3-oxo-5-alpha-steroid 4-dehydrogenase 1 (Homo sapiens)
Sequence (P18405 whole entry): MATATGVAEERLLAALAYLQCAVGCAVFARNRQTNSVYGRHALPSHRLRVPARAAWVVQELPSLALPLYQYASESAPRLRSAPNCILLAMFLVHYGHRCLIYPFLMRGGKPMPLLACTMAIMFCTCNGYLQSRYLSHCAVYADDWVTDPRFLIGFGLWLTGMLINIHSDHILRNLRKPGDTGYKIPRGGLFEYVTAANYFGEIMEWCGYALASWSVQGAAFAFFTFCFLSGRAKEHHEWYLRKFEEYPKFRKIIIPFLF
Assay: Inhibition of recombinant steroid 5-alpha-reductase type I
valueType: pKi
Field pKi (float): negative decimal logarithm of the concentration in molar.

Here are 3 compounds together with their reported answers.
* CC(C)(C)c1ccc(-c2ccc(Cl)cc2)cc1NC(=O)[C@H]1CCC2C3CNC4=CC(=O)CC[C@]4(C)C3CC[C@@]21C (some centres undefined) | 8.47
* C[C@]12CCC(=O)C(Cl)=C1NCC1C2CC[C@@]2(C)C1CC[C@@H]2C(=O)NC1(c2ccc(Cl)cc2)CCCC1 (some centres undefined) | 9.22
* CC(C)(C)c1ccc(C2(NC(=O)[C@H]3CCC4C5CNC6=CC(=O)CC[C@]6(C)C5CC[C@@]43C)CCCC2)cc1 (some centres undefined) | 8.52

q: # query: pKi of entry C[C@]12CCC(=O)C=C1NCC1C2CC[C@@]2(C)C1CC[C@@H]2C(=O)NC1(c2ccc(Cl)cc2)CCCCC1 (some centres undefined)
a: 8.51

###

Test: Inhibition of recombinant human adrenal 3-beta-hydroxy-delta-5-steroid dehydrogenase
log10 Ki values, listed per item
Annotation: log10 of Ki, nM basis.

Look over these answered cases.
- CC(C)(C)c1ccc(-c2ccc(Cl)cc2)cc1NC(=O)[C@H]1CCC2C3CNC4=CC(=O)CC[C@]4(C)C3CC[C@@]21C (some centres undefined): 3.08
- CC(C)(C)c1ccc(C2(NC(=O)[C@H]3CCC4C5CNC6=CC(=O)CC[C@]6(C)C5CC[C@@]43C)CCCCC2)cc1 (some centres undefined): 3.34
- CC1=C2NCC3C(CC[C@@]4(C)C3CC[C@@H]4C(=O)Nc3cc(C(F)(F)F)ccc3C(C)(C)C)[C@@]2(C)CCC1=O (some centres undefined): 2.30
- CC(C)(C)c1ccc(C2(NC(=O)[C@H]3CCC4C5CNC6=CC(=O)CC[C@]6(C)C5CC[C@@]43C)CCCC2)cc1 (some centres undefined): 3.18
- C[C@]12CCC(=O)C=C1NCC1C2CC[C@@]2(C)C1CC[C@@H]2C(=O)Nc1cc(C(F)(F)F)ccc1C(F)(F)F (some centres undefined): 2.48

q: Entry CC(C)(C)NC(=O)[C@H]1CC[C@H]2[C@@H]3CC=C4C=C(C(=O)O)CC[C@]4(C)[C@H]3CC[C@]12C [EPRISTERIDE] has what log10 Ki?
a: 2.20

q: Please give the measured log10 Ki for this compound: CC1=C2NCC3C(CC[C@@]4(C)C3CC[C@@H]4C(=O)Nc3cc(C(F)(F)F)ccc3C(F)(F)F)[C@@]2(C)CCC1=O (some centres undefined)
a: 1.28

q: Item under review: C[C@]12CCC(=O)C=C1NCC1C2CC[C@@]2(C)C1CC[C@@H]2C(=O)NC1(c2ccc(Cl)cc2)CCCCC1 (some centres undefined) . Reported log10 Ki?
a: 3.26

q: Endpoint output: log10 Ki of C[C@]12CC[C@H]3[C@@H](CNC4=C(Cl)C(=O)CC[C@@]43C)[C@@H]1CC[C@@H]2C(=O)Nc1c(C(F)(F)F)cccc1C(F)(F)F (stereo in doubt; 25) . Value?
a: 2.57
